System: MDA-MB-436
Experiment: normalised response (% of control), CellTox Green; higher = less cell death (100 = DMSO, 0 = benzethonium chloride kill control)
Settings: incubation time: 72 h
Binary classification by normalised response, with 80% as an inclusive lower bound for True; all other cases are False.

Q. Decide: normalised response of O=C(Nc1cccnc1)N1CCC(Cc2cccc(Oc3ccc(C(F)(F)F)cn3)c2)CC1 [PF-3845] (1000 nM) >= 80%?
A. True

Q. Decide: normalised response of CO[C@H]1C[C@@H]2CC[C@@H](C)[C@@](O)(O2)C(=O)C(=O)N2CCCC[C@H]2C(=O)O[C@H]([C@H](C)C[C@@H]2CC[C@@H](OP(C)(C)=O)[C@H](OC)C2)CC(=O)[C@H](C)/C=C(\C)[C@@H](O)[C@@H](OC)C(=O)[C@H](C)C[C@H](C)/C=C/C=C/C=C/1C [Ridaforolimus] (1 nM) >= 80%?
A. False

Q. Decide: normalised response of Cc1[nH]c2ccccc2c1CCNCc1ccc(/C=C/C(=O)NO)cc1 [Panobinostat] (100 nM) >= 80%?
A. False

Q. Decide: normalised response of Cc1ccc(NC(=O)c2ccc(CN3CCN(C)CC3)cc2)cc1Nc1nc(-c2cccnc2)cs1 [Masitinib] (1000 nM) >= 80%?
A. False

Q. Decide: normalised response of O=C(Nc1ccncc1)C(=O)c1cn(Cc2ccc(Cl)cc2)c2ccccc12 [Indibulin] (100 nM) >= 80%?
A. True
